tested on: UACC-257 melanoma; experiment: NCI-60 one-dose screen, 48 h (100 = growth as untreated, 0 = no growth, -100 = all killed); conditions: 10 µM
This is part of a sample that, as a whole, favours compounds with a hit. Of some 83,000 tested, about 20% had one in any assay.
In plain terms, low growth, meaning strictly below 70%, gives Criterion met, and everything else gives Criterion not met.

Example results:
Cc1ccc2nc(-c3ccc(OCC(=O)N=Nc4c(O)[nH]c5ccccc45)cc3)[nH]c2c1 ... Criterion not met
C/C(=N\NC(=S)N1CCCC1)c1ccccn1 ... Criterion met
O=C(OCC1OC(n2cc(C(F)(F)F)c(=O)[nH]c2=O)CC1OC(=O)c1ccc([N+](=O)[O-])cc1)c1ccc([N+](=O)[O-])cc1 (stereo not drawn) ... Criterion met
CN(C)CCCN1c2ccccc2Sc2ccc(C(F)(F)F)cc21 ... Criterion met
COc1ccc(N2CCN(c3nc(-c4ccccc4)c(C#N)c(=O)[nH]3)CC2)cc1 ... Criterion not met
COc1ccc(C2=NNC(c3sc(Cl)nc3Cl)C2)cc1 (stereo not drawn) ... Criterion not met
Cc1cn(C(=O)/C(Cl)=C(/Cl)C(=O)O)c2ccccc12 ... Criterion not met
Cc1ccc(-c2cc(-c3cccc(Nc4ccnc5cc(Cl)ccc45)c3)nc3nc(N)[nH]c(=O)c23)cc1 ... Criterion not met
COC1OC2COC(c3ccccc3)OC2C(=O)C1NC(=O)c1ccccc1 (stereo not drawn) ... Criterion not met
Fc1cc(-c2ncc(-c3cc(F)c(F)c(F)c3)c(NC3CCCCCC3)n2)cc(F)c1F ... Criterion not met

q: Given Cc1ccc([P+](Cc2ccc([N+](=O)[O-])cc2)(c2ccc(C)cc2)c2ccc(C)cc2)cc1 , is recorded growth strictly lower than 70%?
a: Criterion met

q: Given O=C1/C(=C/c2ccc([N+](=O)[O-])s2)Oc2ccc(Cl)cc21 , is recorded growth strictly lower than 70%?
a: Criterion met

q: Given CCOC(=O)c1cc2c(n1Cc1cc(OC)cc(OC)c1)-c1oncc1CC2 , is recorded growth strictly lower than 70%?
a: Criterion met

q: Given CC(C)=C1CCC(C)C/C1=N\N=C(N)N (stereo not drawn) , is recorded growth strictly lower than 70%?
a: Criterion not met

q: Given COc1cc(C(=O)n2nc(N)c3c(C)cc(C)nc32)cc(OC)c1OC , is recorded growth strictly lower than 70%?
a: Criterion not met

* * *

System: NCI-H226 lung
Assay: NCI-60 one-dose screen, 48 h
Conditions: 10 µM
Experimental: Growth inhibition of the NCI-H226 human Non-Small Cell Lung tumor cell line is measured as a screen for anti-cancer activity. Cells are grown in 96 well plates and exposed to the test compound for 48 hours. Compounds are tested at a single concentration, which is 10^-5 M for most compounds. The reported endpoint is percent growth (GI% or GIPRCNT), where numbers from 0 - 100% represent growth inhibition, and numbers from -100% - 0 represent cell death. […]
The panel holds about 83,000 compounds, 20% with a hit somewhere; the sample as a whole holds those more often. Activity calls are given as the source filed them. How the source made its calls: active means growth percent below 10; inactive means the rest.
Hi! Could you answer with just one of these? class 1 (active), class 0 (inactive)

Oc1ccccc1-c1nnc(Cn2c(Cc3cccc4ccccc34)nc3ccccc32)o1 ... class 0
CN(C)c1ccc2c(c1)OC(N)=C(C#N)C2c1ccc2c(c1)CCCN2C (configuration not stated) ... class 0
CC(=O)O[C@H]1CC[C@@]2(C)[C@@H](CC[C@@H]3[C@@H]2CC[C@]2(C)C=C(C=O)C[C@@H]32)C1 ... class 0
CN(C)c1ccc2c(c1)OC(N)=C(C#N)C2c1ccc2c(c1)CCO2 (configuration not stated) ... class 0
COc1ccc2nc(/C=C/c3ccc(N(C)C)cc3)sc2c1 ... class 0

q: Assay result, entry O=C(OCC1OC(n2cc(C(F)(F)F)c(=O)[nH]c2=O)CC1OC(=O)c1ccc([N+](=O)[O-])cc1)c1ccc([N+](=O)[O-])cc1 (configuration not stated) — outcome?
a: class 0

q: Assay result, entry Oc1cc(O)c(Br)cc1Br — outcome?
a: class 0

q: Assay result, entry COc1cc(CSc2nc3ccc(C)cc3c(=O)n2-c2ccccc2)cc(OC)c1OC — outcome?
a: class 0

* * *

tested on: HOP-62 NSCLC; assay: NCI-60 one-dose screen, 48 h; conditions: 10 µM
This is part of a sample that, as a whole, favours compounds with a hit. Of some 83,000 tested, about 20% had one in any assay. Activity calls are given as the source filed them. Rule for the calls: active = growth percent below 10; inactive = the rest.
Hi! Could you answer with just one of these? active, inactive

q: Assay result, entry COc1ccc(-c2[nH]ncc2-c2cc(OC)c(OC)c(OC)c2)cc1 — outcome?
a: inactive

q: Assay result, entry O=C1/C(=C/c2ccc(O)cc2)CSc2ccc(Cl)cc21 — outcome?
a: inactive

q: Assay result, entry COc1cc(-c2nc3ccccc3[nH]2)ccc1OCc1nnc(-c2ccc(Br)cc2)o1 — outcome?
a: inactive

q: Assay result, entry O=[N+]([O-])c1ccc(-c2nc(Cl)c3c(n2)CCCC3)o1 — outcome?
a: inactive

q: Assay result, entry CC1(C)Cc2c(cn(Cc3ccccc3)c2-c2ccccc2)-c2oncc21 — outcome?
a: inactive

q: Assay result, entry COc1cccc2c1O/C(=C\c1ccc([N+](=O)[O-])s1)C2=O — outcome?
a: inactive

q: Assay result, entry Nc1ncc(-c2ccc(C(F)(F)F)cc2)c(NC2CCCCCC2)n1 — outcome?
a: inactive

q: Assay result, entry CN(C1c2ccccc2Oc2ccccc21)S(=O)(=O)c1cc(Cl)ccc1Cl — outcome?
a: inactive

q: Assay result, entry COc1ccccc1Cn1cc2c(c1-c1ccccc1)CCc1cnoc1-2 — outcome?
a: inactive

q: Assay result, entry Cc1ccc(-n2nnc3c(sc4ccccc43)c2=O)cc1 — outcome?
a: inactive

q: Assay result, entry N#C/C(=C\N1C(=O)/C(=C/c2cccc([N+](=O)[O-])c2)SC1=S)c1nc2ccccc2s1 — outcome?
a: inactive

q: Assay result, entry C#C[C@]1(O)CC[C@H]2[C@@H]3CC[C@H]4CC(F)(F)CC[C@]4(C)[C@H]3CC[C@@]21C — outcome?
a: inactive

q: Assay result, entry C(=C\c1nc2ccccc2s1)/c1ccc(N2CCOCC2)s1 — outcome?
a: inactive

q: Assay result, entry CC1(C)CNC(=O)N1 — outcome?
a: inactive

q: Assay result, entry CCOC(=O)c1c(Cl)c2c(n1Cc1cccc(OC)c1)-c1oncc1CC2 — outcome?
a: inactive

q: Assay result, entry COc1cc(OC)cc(-c2n/c(=C\c3c(O)[nH]c4ccc(OC)cc34)cc3c2=Nc2ccccc2-3)c1 — outcome?
a: inactive

q: Assay result, entry COc1cc(/C=C/C(=O)c2cc(-c3ccccc3)ccc2O)cc(OC)c1OC — outcome?
a: inactive

* * *

test system: DU-145 prostate; assay: NCI-60 one-dose screen, 48 h (100 = growth as untreated, 0 = no growth, -100 = all killed); conditions: 10 µM
About 83,000 compounds went through this panel and 20% of them were active in at least one assay; those are over-represented in the sample as a whole.
Values of growth greater than or equal to 90% map to Fulfilled; values below map to Not fulfilled.

Example results:
CC(C)OCc1cc(CN2CCN(c3cccc(Cl)c3)CC2)c(O)c2ncccc12 ... Not fulfilled
CCCc1c(CC)c(=N)c2ccccc2n1C ... Not fulfilled

q: Can O/N=C1\CCC2CCCCC2C1 (stereo unspecified) be said to have growth at or above 90%?
a: Fulfilled

q: Can C=CCc1cc(Nc2c3ccc(Cl)cc3nc3ccc(OC)cc23)cc(CN(CC)CC)c1O be said to have growth at or above 90%?
a: Not fulfilled

q: Can COCCOC(=O)NC(=O)Nc1ccc(C(=O)c2ccc(Cl)cc2)cc1 be said to have growth at or above 90%?
a: Not fulfilled

q: Can CS(=O)(=O)Nc1ccc(OCc2nnc(-c3ccc(Cl)cc3)o2)c(F)c1 be said to have growth at or above 90%?
a: Fulfilled

q: Can NC(N)=NS(=O)(=O)c1ccc(Nc2ccc3nnc(-c4ccncc4)n3n2)cc1 be said to have growth at or above 90%?
a: Fulfilled

q: Can CCN(CC)CC(O)Cc1ccc(OC)cc1 (stereo unspecified) be said to have growth at or above 90%?
a: Fulfilled

q: Can CCC(O)c1ccc(Br)cc1NC(=O)c1cccc(Cl)c1 (stereo unspecified) be said to have growth at or above 90%?
a: Not fulfilled

q: Can COc1ccc(/C(CS(=O)(=O)c2ccccc2)=N\O)cc1 be said to have growth at or above 90%?
a: Fulfilled

* * *

test system: SN12C renal; experiment: NCI-60 one-dose screen, 48 h (100 = growth as untreated, 0 = no growth, -100 = all killed); conditions: 10 µM
About 83,000 compounds went through this panel and 20% of them were active in at least one assay; those are over-represented in the sample as a whole.
In plain terms, low growth, meaning strictly below 60%, gives true, and everything else gives false.

CCCCCCCC/C=C/CCCCCCCCC1=NCCN1CCO ... false

q: Given CC(=O)Nc1nc(C)c(C(=O)N/N=C/c2cccn2C)s1 , is recorded growth strictly lower than 60%?
a: false

q: Given COc1ccc2nc(C)cc(Nc3ccc(Cl)cc3)c2c1 , is recorded growth strictly lower than 60%?
a: false

q: Given CCOC(=O)c1cc2c(n1Cc1ccccc1)-c1oncc1CC2 , is recorded growth strictly lower than 60%?
a: false

q: Given COc1ccc(C(C)=O)cc1N1C(=O)C2C(C1=O)C1(c3ccccc3)C(=O)C2(c2ccccc2)C(c2ccc(C)cc2)=C1c1ccc(C)cc1 (stereo unspecified) , is recorded growth strictly lower than 60%?
a: true

q: Given COc1ccc(-c2nc(-c3ccccc3)c(-c3ccccc3)[nH]2)cc1OC1CCCC1 , is recorded growth strictly lower than 60%?
a: false

q: Given COc1ccc(Cn2cc3c(c2-c2ccccc2)CC(C)(C)c2cnoc2-3)cc1 , is recorded growth strictly lower than 60%?
a: true

q: Given O=C(CCCC(=O)N/N=C/c1cc(Cl)ccc1O)N/N=C\c1cc(Cl)ccc1O , is recorded growth strictly lower than 60%?
a: true

q: Given CCCCC(CC#N)(CCC)CCC , is recorded growth strictly lower than 60%?
a: false

q: Given CCN1CCN(c2ccc(Nc3ncnc4c3nnn4CCc3cc(OC)cc(OC)c3)cc2)CC1 , is recorded growth strictly lower than 60%?
a: false

q: Given COc1ccc2c(c1)/C(=C/c1cc(OC)c(OC)c(OC)c1)C(=O)N2C , is recorded growth strictly lower than 60%?
a: true
